# credit: patent US9695155B2

# Test system: giant foxtail
# protocol-summary: Test A postemergence
# Format: in vivo, Setaria faberii
# experimental-context: 500 g ai/ha, 0 to 100 scale where 0 is no effect and 100 is complete control
test-readout: Plant response rating, Foxtail, Giant

> print(dat)
                                  structure  result
1  Clc1cnc(Oc2ccccc2-n2cc(-c3ccccn3)cn2)nc1      40
2  Cc1cnc(Oc2cccc(C#N)c2-n2cc(C(F)(F)F)cn2)nc1      90
3    Cc1cnc(Oc2cccc(C#N)c2-n2cc(C#N)cn2)nc1      90

Reported giant foxtail Plant response rating, Foxtail, Giant for item "FC(F)c1cccc(Oc2ncc(Cl)cn2)c1-n1cc(Cl)cn1" was 90

Reported giant foxtail Plant response rating, Foxtail, Giant for item "NN=Cc1cccc(Oc2ncc(Cl)cn2)c1-n1cc(Cl)cn1" was 0

Reported giant foxtail Plant response rating, Foxtail, Giant for item "NN=Cc1cccc(Oc2ncc(Cl)cn2)c1-n1cc(Br)cn1" was 20

Reported giant foxtail Plant response rating, Foxtail, Giant for item "CC1(C)OB(c2cnn(-c3c(C#N)cccc3Oc3ncc(Cl)cn3)c2)OC1(C)C" was 60

----------
# System: Heteranthera limosa
# protocol-summary: Test B flooded paddy test
# Assay type: in vivo
# experimental-context: Flood, 250 g ai/ha; 0 to 100 scale where 0 is no effect and 100 is complete control
test-readout: Plant response rating, Ducksalad
Give the figure only, with no unit attached.

Known Plant response rating, Ducksalad results, listed for orientation:
> print(dat)
                                   molecule  quantitative.result
1  Fc1cccc(Oc2ncc(Cl)cn2)c1-n1cc(OC(F)F)cn1 [Compound 271]                   90
2  CC(=O)c1cn(-c2c(Br)cccc2Oc2ncc(Cl)cn2)nn1 [Compound 280]                   30

Reported Heteranthera limosa Plant response rating, Ducksalad for item FCc1cccc(Oc2ncc(Br)cn2)c1-n1cc(I)cn1 [Compound 244] was 40

Reported Heteranthera limosa Plant response rating, Ducksalad for item Fc1cc(Oc2ncc(Cl)cn2)c(-n2cc(Br)cn2)cc1F [Compound 196] was 85

Reported Heteranthera limosa Plant response rating, Ducksalad for item CC(C)Oc1cnn(-c2c(C#N)cccc2Oc2ncc(Cl)cn2)c1 [Compound 149] was 70

----------
# Test system: barnyardgrass
# protocol-summary: Test A postemergence
# Format: in vivo, Echinochloa crus-galli
# experimental-context: 125 g ai/ha, 0 to 100 scale where 0 is no effect and 100 is complete control
Plant response rating, Barnyardgrass vs 10: at or above is Satisfied, below is Not satisfied.

Asked: Check if Plant response rating, Barnyardgrass >= 10 (inclusive). Item: "Cc1cccc(Oc2ncc(Br)cn2)c1-n1cc(Br)cn1"
Given back: Satisfied

Asked: Check if Plant response rating, Barnyardgrass >= 10 (inclusive). Item: "Clc1cnc(Oc2cc(Cl)ccc2-n2cccn2)nc1"
Given back: Not satisfied

Asked: Check if Plant response rating, Barnyardgrass >= 10 (inclusive). Item: "FC(F)(F)c1cnc(Oc2ccccc2-n2ccc(C(F)(F)F)n2)nc1"
Given back: Not satisfied

Asked: Check if Plant response rating, Barnyardgrass >= 10 (inclusive). Item: "N#Cc1cccc(Oc2ncc(Br)cn2)c1-n1cc(Cl)cn1"
Given back: Satisfied

Asked: Check if Plant response rating, Barnyardgrass >= 10 (inclusive). Item: "N#Cc1cnn(-c2ccccc2Oc2ncc(Cl)cn2)c1"
Given back: Not satisfied

Asked: Check if Plant response rating, Barnyardgrass >= 10 (inclusive). Item: "FC(F)(F)COc1cnn(-c2c(Cl)cccc2Oc2ncc(Cl)cn2)c1"
Given back: Satisfied

Asked: Check if Plant response rating, Barnyardgrass >= 10 (inclusive). Item: "O=[N+]([O-])c1cccc(Oc2ncc(Cl)cn2)c1-n1cc(Br)cn1"
Given back: Satisfied

Asked: Check if Plant response rating, Barnyardgrass >= 10 (inclusive). Item: "Clc1cnc(Oc2cccc(Br)c2-n2cc(I)nn2)nc1"
Given back: Satisfied

Asked: Check if Plant response rating, Barnyardgrass >= 10 (inclusive). Item: "FCCc1cn(-c2c(F)cccc2Oc2ncc(Cl)cn2)nn1"
Given back: Satisfied
